assay: in vitro; details: human;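 further: MTT reduction read as absorbance at 595 nm, blank-corrected and expressed as percent growth relative to the time-zero cell reading, triplicate wells per concentration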
Bridge positions count the residues as written; N and C are the ends. Square brackets hold non-standard residues; d marks the D form. Peptide text beside a SMILES is read from it. 2Nal = N[C@@H](Cc1ccc2ccccc2c1)C(=O)O; Cit = NC(=O)NCCC[C@H](N)C(=O)O
Items are presented alongside their recorded GI50 at 48 h.

Compound	GI50 at 48 h (µM)
CC(C)[C@@H]1NC(=O)[C@H](CCCNC(=N)N)NC(=O)[C@H](Cc2ccc(O)cc2)NC(=O)[C@@H]2CCCN2C(=O)[C@H]2CCCN2C(=O)[C@H](CCCCN)NC(=O)[C@H](CCC(N)=O)NC(=O)[C@H](Cc2ccc(O)cc2)NC(=O)[C@@H]2CSSC[C@H](NC1=O)C(=O)N[C@@H](CCCNC(=N)N)C(=O)NCC(=O)N1CCC[C@@H]1C(=O)N[C@@H](CCCNC(=N)N)C(=O)N[C@@H](CCCNC(=N)N)C(=O)N[C@@H](Cc1ccc3ccccc3c1)C(=O)N2 [Ex. 98] (cyclo(YRVCRG[dP]RR[2Nal]CYQK[dP]P); disulfide 4-11)	41
N=C(N)NCCC[C@@H]1NC(=O)[C@@H]2CSSC[C@H](NC(=O)[C@H](Cc3c[nH]c4ccccc34)NC(=O)[C@H](CCCNC(=N)N)NC(=O)[C@H](CCCNC(=N)N)NC(=O)[C@H]3CCCN3C(=O)CNC1=O)C(=O)N[C@@H](Cc1ccc(O)cc1)C(=O)N[C@@H](CCCNC(N)=O)C(=O)N[C@@H](CC(=O)O)C(=O)N1CCC[C@@H]1C(=O)N1CCC[C@H]1C(=O)N[C@@H](Cc1ccc(O)cc1)C(=O)N[C@@H](CCCNC(=N)N)C(=O)N[C@@H](CO)C(=O)N2 [Ex. 102] (cyclo(YRSCRG[dP]RRWCY[Cit]D[dP]P); disulfide 4-11)	33
